Target: GABAB(B1b/B2) Human GABA B GPCR (Homo sapiens, UniProt Q9UBS5)
Construct: Eurofins (Cerep) assay 4699
Sequence (Q9UBS5 1-844 isoform Q9UBS5-2): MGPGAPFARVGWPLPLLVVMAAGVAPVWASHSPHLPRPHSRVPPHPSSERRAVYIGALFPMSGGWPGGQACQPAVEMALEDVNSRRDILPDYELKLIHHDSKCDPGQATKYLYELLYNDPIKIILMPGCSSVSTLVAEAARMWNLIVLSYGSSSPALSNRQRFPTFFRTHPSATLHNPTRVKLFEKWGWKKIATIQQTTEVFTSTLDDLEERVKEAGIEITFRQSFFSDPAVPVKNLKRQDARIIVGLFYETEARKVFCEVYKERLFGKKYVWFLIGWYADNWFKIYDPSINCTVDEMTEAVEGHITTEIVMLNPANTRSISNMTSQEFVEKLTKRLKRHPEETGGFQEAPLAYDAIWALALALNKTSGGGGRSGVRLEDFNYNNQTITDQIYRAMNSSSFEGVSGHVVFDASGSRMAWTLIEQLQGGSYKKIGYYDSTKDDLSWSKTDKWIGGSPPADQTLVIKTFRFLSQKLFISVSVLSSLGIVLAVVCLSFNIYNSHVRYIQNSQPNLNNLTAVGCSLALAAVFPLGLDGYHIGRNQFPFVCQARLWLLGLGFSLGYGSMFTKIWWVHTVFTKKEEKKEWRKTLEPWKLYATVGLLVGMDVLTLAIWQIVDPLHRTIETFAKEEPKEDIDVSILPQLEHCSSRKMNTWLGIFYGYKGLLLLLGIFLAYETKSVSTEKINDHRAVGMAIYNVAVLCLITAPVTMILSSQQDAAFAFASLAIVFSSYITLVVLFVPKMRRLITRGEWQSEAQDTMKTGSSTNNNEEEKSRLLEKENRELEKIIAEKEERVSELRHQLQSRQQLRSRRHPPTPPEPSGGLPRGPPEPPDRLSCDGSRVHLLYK
Sequence (O75899 42-941 partner): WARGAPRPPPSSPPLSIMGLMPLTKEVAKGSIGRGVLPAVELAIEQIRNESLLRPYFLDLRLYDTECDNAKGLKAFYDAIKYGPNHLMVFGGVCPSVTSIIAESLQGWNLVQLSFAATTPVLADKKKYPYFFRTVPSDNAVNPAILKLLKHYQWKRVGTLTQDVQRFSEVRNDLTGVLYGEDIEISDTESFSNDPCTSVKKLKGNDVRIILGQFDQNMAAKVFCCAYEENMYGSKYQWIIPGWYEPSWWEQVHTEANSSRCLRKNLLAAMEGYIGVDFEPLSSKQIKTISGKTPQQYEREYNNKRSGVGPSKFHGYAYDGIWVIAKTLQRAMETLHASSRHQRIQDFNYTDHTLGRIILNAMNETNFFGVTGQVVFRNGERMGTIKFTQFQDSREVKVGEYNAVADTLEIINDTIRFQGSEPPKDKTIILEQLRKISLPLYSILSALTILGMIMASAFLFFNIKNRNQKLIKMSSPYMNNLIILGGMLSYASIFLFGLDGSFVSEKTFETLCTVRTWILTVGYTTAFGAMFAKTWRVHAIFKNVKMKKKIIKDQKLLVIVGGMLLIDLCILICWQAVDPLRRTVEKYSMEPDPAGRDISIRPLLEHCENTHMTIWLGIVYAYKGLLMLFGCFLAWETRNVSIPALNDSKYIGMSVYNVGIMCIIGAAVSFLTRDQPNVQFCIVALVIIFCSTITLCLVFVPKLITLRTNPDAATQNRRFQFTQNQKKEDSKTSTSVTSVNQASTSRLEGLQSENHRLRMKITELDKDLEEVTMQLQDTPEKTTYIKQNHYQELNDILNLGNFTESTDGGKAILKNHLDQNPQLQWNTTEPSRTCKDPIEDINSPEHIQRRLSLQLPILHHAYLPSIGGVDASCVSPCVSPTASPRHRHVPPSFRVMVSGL
Assay: GABAB(B1b/B2) Human GABA B GPCR Mass Spectrometry Binding (Antagonist Ligand) Assay, Cerep, assay 4699
Conditions: Specific binding; reference compound; read-out: Concurrent IC50
RECORDED ENDPOINT: pIC50
pIC50 field: float, defined as -log10 of concentration (mol/L).

*Q* Identify the measured pIC50 of CCOC(OCC)P(=O)(O)CCCNCc1ccc(Cl)c(Cl)c1 [CGP 52432] for GABAB(B1b/B2) Human GABA B GPCR (Homo sapiens, UniProt Q9UBS5).
*A* 7.39

Origin of measurements: paper PMC11956013
